System: cellular histone deacetylase enzymatic activity in Jurkat E6-1 cells
Experiment: Inhibition of cellular HDAC activity, Boc-Lys(Tfa)-AMC substrate, in Jurkat E6-1 cells
Type: cell-based
Conditions: Homo sapiens, Class IIa selective substrate Boc-Lys(Tfa)-AMC
Protocol: The potency of Class IIa Histone Deacetylase (HDAC) inhibitors is quantified by measuring the cellular histone deacetylase enzymatic activity using the Class IIa selective substrate, Boc-Lys(Tfa)-AMC. […] 5 μl of each solution of 1:20 diluted compound from above is transferred to the Greiner microtitre assay plates with 75,000 cells/well using the Bravo. […] Finally the top read fluorescence (Excitation: 355 nm, Emission: 460 nm) is measured using PerkinElmer EnVision.
TEST READOUT: pIC50
When answering, recall that pIC50 equals minus log10 of the concentration in mol/L, and write that number alone.

Use these answered entries as a reference point.
O=C(NO)[C@@H]1[C@H](c2ccccc2)[C@H]1c1ccc(-c2ncc(C(F)(F)F)cn2)cc1 [Compound 50e] :: 6.16
Cc1ccn(-c2ccc([C@H]3[C@H](C(=O)NO)[C@@H]3c3ccccc3)cc2)n1 :: 6.19
O=C(NO)[C@H]1[C@H](c2cc(Cl)c3c(c2)OCCO3)[C@H]1c1ccccc1F [Compound 25f] :: 6.62

API: the following record is the query input.
Prompt line: Give cellular histone deacetylase enzymatic activity in Jurkat E6-1 cells pIC50 for O=C(NO)[C@@H]1[C@H](c2ccccc2)[C@H]1c1ccc(-n2cccn2)cc1 (racemic)
Response line: 6.01

====

molecular target: human catalytic domain HDAC4 protein (Homo sapiens, UniProt P56524, A743G/DEL730-739/DEL742-742); experiment: Inhibition of HDAC4 catalytic domain enzymatic activity, Boc-Lys(Tfa)-AMC substrate, fluorescence; conditions: Class IIa selective substrate Boc-Lys(Tfa)-AMC, read-out: Biochemical HDAC-4 IC50
Response field class: enum, chosen by comparing IC50 against b0: < 0.1 µM; b1: ≥ 0.1 µM and < 0.6 µM; b2: ≥ 0.6 µM

Prompt line: // bin(item) where item = `Cc1ccn(-c2ccc([C@H]3[C@H](C(=O)NO)[C@@H]3c3ccccc3)cc2)n1`
Response line: b0

Prompt line: // bin(item) where item = O=C(NO)[C@@H]1[C@H](c2ccccc2)[C@H]1c1ccc(-c2ncc(C3CC3)cn2)cc1 (racemic) [Compound 50c]
Response line: b1

Prompt line: // bin(item) where item = O=C(NO)[C@@H]1[C@H](c2ccccc2)[C@H]1c1ccccc1Br (racemic) [Compound 16a]
Response line: b2

Prompt line: // bin(item) where item = O=C(NO)[C@@H]1[C@H](c2ccccc2)[C@H]1c1ccc(-c2cccc(OCc3ccccc3)c2)cc1 [Compound 54a]
Response line: b2

Prompt line: // bin(item) where item = `O=C(NO)[C@@H]1[C@H](c2ccccc2)[C@H]1c1cnc2ccccn12`
Response line: b1

Prompt line: // bin(item) where item = `Cc1cnc(-c2cccc([C@H]3[C@H](C(=O)NO)[C@@H]3c3ccccc3)c2)nc1`
Response line: b1

====

target: human catalytic domain HDAC4 protein (Homo sapiens, UniProt P56524, A743G/DEL730-739/DEL742-742); test: Inhibition of HDAC4 catalytic domain enzymatic activity, Boc-Lys(Tfa)-AMC substrate, fluorescence; conditions: Class IIa selective substrate Boc-Lys(Tfa)-AMC, read-out: Biochemical HDAC-4 IC50;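 also: trypsin releases AMC from deacetylated substrate, fluorescence tracks enzyme activity, 15 min reaction at 37 °C, 100% activity defined by DMSO-only control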
TEST READOUT: pIC50
When answering, recall that pIC50 equals minus log10 of the concentration in mol/L, and write that number alone.

Use these answered entries as a reference point.
Cc1ccc([C@H]2[C@H](C(=O)NO)[C@@H]2c2ccccc2)cc1 (racemic) [Compound 18c] :: 6.82
O=C(NO)[C@@H]1[C@H](c2ccccc2)[C@H]1c1cccc(Br)c1 (racemic) [Compound 16b] :: 7.15
Cc1cccc([C@H]2[C@H](C(=O)NO)[C@@H]2c2ccccc2)c1 (racemic) [Compound 18b] :: 6.82

Prompt line: What value of pIC50 has been recorded for this entry: O=C(NO)[C@@H]1[C@H](c2ccccc2)[C@H]1c1ccc(-n2ccnc2)cc1 (racemic)
Response line: 6.70

Prompt line: What value of pIC50 has been recorded for this entry: C[C@@]1(C(=O)NO)[C@H](c2ccccc2)[C@H]1c1ccc(-c2ncc(F)cn2)cc1 (racemic)
Response line: 6.57
